# experimental_system: Dihydrofolate reductase (Homo sapiens, UniProt P00374)
# Sequence (P00374 whole entry): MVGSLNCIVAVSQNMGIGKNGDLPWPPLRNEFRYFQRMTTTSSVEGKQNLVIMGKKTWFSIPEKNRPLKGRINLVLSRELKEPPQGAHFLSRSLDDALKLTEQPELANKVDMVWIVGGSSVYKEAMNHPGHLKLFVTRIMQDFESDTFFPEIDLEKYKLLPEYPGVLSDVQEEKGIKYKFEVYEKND
# measurement_protocol: Inhibition of human recombinant DHFR
Assign pIC50 to each entry below.
Give bare numbers, as −log10 of the molar value.

Nc1nc(N)c2c(COc3ccccc3F)cccc2n1 ... 7.41
Nc1nc(N)c2c(COc3cccc(Cl)c3)cccc2n1 ... 5.08
C[C@H](Oc1cccc2nc(N)nc(N)c12)c1cccc(Cl)c1 ... 7.60

Hi! Can you tell me pIC50 for each of these compounds?
1. Nc1nc(N)c2c(OCc3cccc(Cl)c3)cccc2n1
2. Nc1nc(N)c2c(OCC3CCN(Cc4cccc(Cl)c4)CC3)cccc2n1
3. CC(Oc1cccc2nc(N)nc(N)c12)c1cccc(Cl)c1 (racemic)
4. Nc1nc(N)c2c(OCc3ccccc3F)cccc2n1

[7.01, 4.26, 7.47, 9.41]

Read off the recorded pIC50 for `Nc1nc(N)c2c(COc3ccc(F)cc3F)cccc2n1`
4.97

###

# measurement_protocol: Toxicity against rat hepatoma cells
# Type: cell-based
# experimental_conditions: read-out: TC50 (the source's name)
result_type: CC50 (µM)
Give bare numbers, in µM.

As a guide, the following entries are already answered.
Nc1nc(N)c2c(OCc3cccc(Cl)c3)cccc2n1 ... 5
Nc1nc(N)c2c(OCc3ccc(Cl)cc3)cccc2n1 ... 32

Now let's try a different one.
Quick one: give measured CC50 for CC(Oc1cccc2nc(N)nc(N)c12)c1cccc(Cl)c1 (racemic)
1

###

# experimental_system: CYP2C19 (Homo sapiens)
# Sequence (P33261 whole entry): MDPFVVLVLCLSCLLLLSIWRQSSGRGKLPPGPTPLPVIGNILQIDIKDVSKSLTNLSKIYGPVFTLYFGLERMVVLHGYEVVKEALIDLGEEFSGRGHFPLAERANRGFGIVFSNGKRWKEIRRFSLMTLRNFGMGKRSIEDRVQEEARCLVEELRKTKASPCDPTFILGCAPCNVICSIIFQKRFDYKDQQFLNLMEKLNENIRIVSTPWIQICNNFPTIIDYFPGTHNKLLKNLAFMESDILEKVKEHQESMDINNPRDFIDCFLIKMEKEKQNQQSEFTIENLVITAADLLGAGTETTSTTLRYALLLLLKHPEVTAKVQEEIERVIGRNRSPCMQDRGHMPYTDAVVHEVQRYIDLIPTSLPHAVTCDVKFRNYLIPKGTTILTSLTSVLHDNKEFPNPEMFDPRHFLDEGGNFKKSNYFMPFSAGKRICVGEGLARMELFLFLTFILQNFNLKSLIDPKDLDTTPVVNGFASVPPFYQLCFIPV
# measurement_protocol: Inhibition of CYP2C19 at 10 uM
# Type: ADME
result_type: inhibition at 10 µM

Provide measured inhibition at 10 µM value, entry: `Nc1nc(N)c2c(OCC3CCN(Cc4ccccc4F)CC3)cccc2n1`
< 50%

###

# measurement_protocol: Mean residence time (0 to infinity) in NMRI mouse brain at 2 mg/kg, iv
# Assay type: ADME, organism-based
# Set-up: dose 2 mg/kg, route intravenous
result_type: MRT inf (h)
Answers are plain numbers, in h.

Quick one: give measured MRT inf for `Nc1nc(N)c2c(OCC3CCN(Cc4ccccc4F)CC3)cccc2n1`
22.8

###

# measurement_protocol: AUC (last) in NMRI mouse plasma at 2 mg/kg, iv
# Format: ADME, organism-based
# Set-up: time 0 - last, dose 2 mg/kg, route intravenous
result_type: AUC(0-t) (ng·h/mL)
Numbers only, in ng·h/mL.

Indicate the recorded AUC(0-t) value for this compound: `Nc1nc(N)c2c(OCC3CCN(Cc4ccccc4F)CC3)cccc2n1`
2410

###

# measurement_protocol: Cmax in NMRI mouse plasma at 10 mg/kg, po
# Assay type: ADME, organism-based
# Set-up: dose 10 mg/kg, route oral
result_type: Cmax
Please format your answer as a value with the unit trailing.

Give Cmax for `Nc1nc(N)c2c(OCC3CCN(Cc4ccccc4F)CC3)cccc2n1`
0.11 µg/mL

###

# measurement_protocol: Drug level in NMRI mouse brain at 2 mg/kg, iv after 120 mins
# Assay type: ADME, organism-based
# Parameters: dose 2 mg/kg, route intravenous
# experimental_conditions: read-out: Drug uptake
result_type: log10(concentration at 2 h) (log10 of the value in ng/g)
In plain terms, each number is the log10 of measured concentration at 2 h in ng/g.

In the examples that follow, each entry is paired with its recorded log10(concentration at 2 h).
Nc1nc(N)c2c(OCC3CCN(Cc4cccc(Cl)c4)CC3)cccc2n1 ... 3.18
Nc1nc(N)c2c(OCC3CCN(S(=O)(=O)c4ccccc4F)CC3)cccc2n1 ... 2.03
Nc1nc(N)c2c(OCC3CCN(C(=O)c4cccc(Cl)c4)CC3)cccc2n1 ... 1.00
Nc1nc(N)c2c(OCC3CCN(C(=O)c4ccccc4Cl)CC3)cccc2n1 ... 0.95

Proceeding to the next molecule to report its log10(concentration at 2 h).
For the molecule `Nc1nc(N)c2c(OCC3CCN(Cc4ccccc4F)CC3)cccc2n1` , report log10(concentration at 2 h).
3.05
